# Protocol details: chemical genetic growth profiling, strain panel (AID 1159580);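 also: tested at 20 µM; growth read once vehicle control cultures reached saturation at 30 °C; 1 = growth at the plate median or of vehicle wells; lower values mean less growth of the strain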
# Stated conditions: S. cerevisiae deletion strains, growth OD, locus YCL061C, strain MRC1 (second series), active compounds read low
About 2,000 (36%) of roughly 5,500 compounds were called active. Another 18% or so got no clear call; they are omitted. Some of the results follow.
Parameter: normalized growth
Respond numerically, and do not add a unit to the figure.

IN: // query normalized growth value for entry `N#C/C(=C\c1ccc(O)c(O)c1)C(=O)c1ccc(O)c(O)c1`
OUT: 0.995

###

# Protocol details: chemical genetic growth profiling, strain panel (AID 1159580)
# Stated conditions: S. cerevisiae deletion strains, growth OD, locus YJR075W, strain HOC1
The whole screen tested about 5,500 compounds, of which about 2,000 (36%) were called active. Another 18% or so got no clear call; they are omitted. Cut-off read from the data, not from the text of the source: active = normalized growth mostly below about 0.91 (no sharp cut-off); inconclusive = no clear call, values can overlap the other calls; inactive = mostly above about 0.92. The list shows a part of the results.
Tick one outcome: YES = active, NO = inactive

compound=S=C(NC1CCCCC1)N1CCC(c2cnc[nH]2)CC1 label_value=NO
compound="O=C(Cc1cccs1)NC1C(=O)N2C(C(=O)[O-])=C(C[n+]3ccccc3)CSC12 (stereo not drawn)" label_value=NO
compound="COc1ccc2c(c1)CCC1C2CC[C@@]2(C)C1CC[C@@H]2NCCCCCCN1C(=O)C=CC1=O (stereo partly drawn)" label_value=NO
compound="CCCCC1C(=O)N(c2ccccc2)N(c2ccc(O)cc2)C1=O (stereo not drawn)" label_value=NO
compound=O=C1c2ccccc2C(=O)N1CNc1ccc(N2CCOCC2)cc1 label_value=NO
compound=C=C1SC(Nc2cccc(C(F)(F)F)c2)=NC12CCCCC2 label_value=NO
compound="CCOC(=O)c1sc(S(C)(=O)=O)c2c1CCCC2O (stereo not drawn)" label_value=NO
compound="CC(C)CC1NC(=O)NC1=O (stereo not drawn)" label_value=NO

IN: Called result for CC(C)N(CCC(C(N)=O)(c1ccccc1)c1ccccn1)C(C)C (stereo not drawn)
OUT: NO

IN: Called result for CC(C)(C)NCC(O)c1cc(Cl)c(N)c(Cl)c1 (stereo not drawn)
OUT: NO

IN: Called result for `FC(F)(F)c1ccc(Cl)c(NC(=S)NN=C2CCCCCC2)c1`
OUT: NO

IN: Called result for `O=C(O)C1=C[C@@H](O)[C@@H](O)[C@H](O)C1`
OUT: NO

###

# Protocol details: chemical genetic growth profiling, strain panel (AID 1159580);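 also: tested at 20 µM; growth read once vehicle control cultures reached saturation at 30 °C; 1 = growth at the plate median or of vehicle wells; lower values mean less growth of the strain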
# Stated conditions: S. cerevisiae deletion strains, growth OD, locus YNL153C, strain GIM3, active compounds read low
In all, about 5,500 compounds went through this assay and about 2,000 (36%) were called active. Another 18% or so got no clear call; they are omitted. The list shows a part of the results.
Listed compounds paired with reported normalized growth

Some entries whose results are on file:
compound=CCOC(=O)c1sc(SC(C)C)c2c1CCCC2=O parameter="normalized growth" readout_value="0.978 (inactive)"
compound=N#C/C(=C/c1ccc(O)c(O)c1)C(N)=S parameter="normalized growth" readout_value="0.988 (inactive)"
compound=Clc1ccc(C=C2c3ccccc3-c3ccccc32)cc1 parameter="normalized growth" readout_value="0.965 (inactive)"
compound="NC(=S)NCCCC(N)C(=O)O (centres undefined)" parameter="normalized growth" readout_value="1.01 (inactive)"
compound=Cc1onc(-c2ccc(Cl)cc2)c1-c1ccnn1C(=O)NC(C)C parameter="normalized growth" readout_value="0.964 (inactive)"
compound="CC(C)c1c(O)c(-c2cc3c(c(C(C)C)c2O)CCC2C(C)(C)CCC[C@]32C)cc2c1CCC1C(C)(C)CCC[C@]21C (some centres undefined)" parameter="normalized growth" readout_value="0.998 (inactive)"
compound=COc1cc(/C=C(\C#N)C(=O)c2ccc(O)c(O)c2)cc(I)c1O parameter="normalized growth" readout_value="1.02 (inactive)"
compound="Oc1cc2c(cc1O)C1c3ccc(O)c(O)c3OCC1(O)C2 (centres undefined)" parameter="normalized growth" readout_value="0.908 (inactive)"
compound=N#CC(C#N)=Cc1cc(O)c(O)c(O)c1 parameter="normalized growth" readout_value="0.975 (inactive)"
compound=C[C@]12CC[C@@H]3c4ccc(O)cc4CC[C@H]3[C@@H]1CC[C@@H]2O parameter="normalized growth" readout_value="0.948 (inactive)"

IN: // query normalized growth value for entry C[C@]12CCC3c4ccc(O)cc4CCC3C1CC[C@@H]2O (some centres undefined)
OUT: 0.955 (inactive)

IN: // query normalized growth value for entry `N#C/C(=C\c1ccc(O)c(O)c1)C(=O)c1ccc(O)c(O)c1`
OUT: 1.04 (inactive)

IN: // query normalized growth value for entry `COc1cc(/C=C(\C#N)C(N)=S)cc(OC)c1OC`
OUT: 0.989 (inactive)

IN: // query normalized growth value for entry `NC(=NCCC[C@H](N)C(=O)O)N[N+](=O)[O-]`
OUT: 0.975 (inactive)

IN: // query normalized growth value for entry `CC(C)(C)c1cc(C=C(C#N)C#N)cc(C(C)(C)C)c1O`
OUT: 0.821 (inactive)

IN: // query normalized growth value for entry `c1ccc(-c2ccccn2)nc1`
OUT: 0.942 (inactive)

IN: // query normalized growth value for entry CC(=O)[C@@]1(O)CCC2C3C[C@H](C)C4=CC(=O)C=CC4(C)[C@@]3(F)[C@@H](O)C[C@@]21C (some centres undefined)
OUT: 0.992 (inactive)

IN: // query normalized growth value for entry `CC1=NN=C(c2ccc(N)cc2)c2cc3c(cc2C1)OCO3`
OUT: 0.957 (inactive)

IN: // query normalized growth value for entry `CC1=CC(=O)C2=C(C)CC[C@@H]3[C@H](OC(=O)[C@H]3C)[C@@H]12`
OUT: 1.01 (inactive)

IN: // query normalized growth value for entry `O=C1NC(=O)/C(=C/c2ccc(OS(=O)(=O)c3ccc(Cl)cc3)cc2)N1`
OUT: 0.99 (inactive)

###

# Protocol details: chemical genetic growth profiling, strain panel (AID 1159580);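 also: tested at 20 µM; growth read once vehicle control cultures reached saturation at 30 °C; 1 = growth at the plate median or of vehicle wells; lower values mean less growth of the strain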
# Stated conditions: S. cerevisiae deletion strains, growth OD, locus YNL224C, strain SQS1
In all, about 5,500 compounds went through this assay and about 2,000 (36%) were called active. Not shown: some 18% with an inconclusive outcome. Rule as the data show it: active = normalized growth mostly below about 0.91 (no sharp cut-off); inconclusive = no clear call, values can overlap the other calls; inactive = mostly above about 0.92. This is one part of the list.
Tick one outcome: active, inactive

Observe how each entry below is paired with its result.
compound=CC[C@H](NC(=O)c1c(C)c(-c2ccccc2)nc2ccccc12)c1ccccc1 label_value=inactive
compound="CCCCCCCCCC[Si](C)(C)CCC(=O)NC(Cc1ccc(C)cc1)c1ccccc1 (stereo not drawn)" label_value=active
compound=O=C(Nc1ccccc1)c1cc([N+](=O)[O-])ccc1Cl label_value=inactive
compound=COC(=O)[C@@H]1[C@H]2C[C@H]3c4[nH]c5ccccc5c4CCN3C[C@@H]2CC[C@@H]1O label_value=inactive
compound=Cc1cn([C@H]2C=C[C@@H](CO)O2)c(=O)[nH]c1=O label_value=inactive
compound=COc1cc2c(cc1OC)[C@@H](c1ccccc1)CN(C)CC2 label_value=inactive

IN: Called result for `CN1C(C)(C)CCCC1(C)C`
OUT: inactive

IN: Called result for `C[C@H](O)C(=O)C1=Nc2c(nc(N)[nH]c2=O)NC1`
OUT: inactive

###

Listed compounds paired with reported normalized growth
# Protocol details: chemical genetic growth profiling, strain panel (AID 1159580);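 also: tested at 20 µM; growth read once vehicle control cultures reached saturation at 30 °C; 1 = growth at the plate median or of vehicle wells; lower values mean less growth of the strain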
# Stated conditions: S. cerevisiae deletion strains, growth OD, locus YOR083W, strain WHI5 (second series), active compounds read low
In all, about 5,500 compounds went through this assay and about 2,000 (36%) were called active. Inconclusive results (about 18%) are left out. The list shows a part of the results.
Respond numerically, and do not add a unit to the figure.

Some entries whose results are on file:
compound="CN1CCC2(CCN3CCc4c(oc5ccccc45)C3C2)N(C)C1=O (stereo not drawn)" parameter="normalized growth" readout_value=1.02
compound=Cc1cc(C)c(/C=C2\C(=O)Nc3ccccc32)[nH]1 parameter="normalized growth" readout_value=0.847
compound="CC(=O)OC(C)C[N+](C)(C)C (stereo not drawn)" parameter="normalized growth" readout_value=1

IN: // query normalized growth value for entry `CN(C)c1ccc(/C=C2\C(=O)Nc3ccccc32)cc1`
OUT: 0.786

IN: // query normalized growth value for entry COc1ccc2c(c1)CCC1C2CC[C@@]2(C)C1CC[C@@H]2NCCCCCCN1C(=O)C=CC1=O (stereo partly drawn)
OUT: 1.02

IN: // query normalized growth value for entry `CC1(C)CCC(NC(=O)[C@@H](N)CCC(=O)O)CC1`
OUT: 1

IN: // query normalized growth value for entry `COc1cc2c(cc1O)CC[C@@H]1[C@@H]2CC[C@]2(C)[C@@H](O)CC[C@@H]12`
OUT: 0.982

IN: // query normalized growth value for entry CC(COc1ccc(/C=C/c2ccccc2)cc1)[N+](C)(C)C (stereo not drawn)
OUT: 0.816

IN: // query normalized growth value for entry `S=C=Nc1cccc(C2(N3CCCCC3)CCCCC2)c1`
OUT: 1

IN: // query normalized growth value for entry COc1cc(C(O)CO)ccc1OS(=O)(=O)O (stereo not drawn)
OUT: 1.05

IN: // query normalized growth value for entry `COc1cc2c(cc1OC)[C@@H](c1ccccc1)CN(C)CC2`
OUT: 1.02

IN: // query normalized growth value for entry `C[C@H](O)C(=O)C1=Nc2c(nc(N)[nH]c2=O)NC1`
OUT: 0.996

IN: // query normalized growth value for entry CCCCCCCCCCCCCCCCCC(=O)OC(CC(=O)O)C[N+](C)(C)C (stereo not drawn)
OUT: 0.102

Taken from PubChem BioAssay AID1159580.
